# procedureSummary: Urinary (renal) excretion in rats after a 30-min infusion of Kang-Ai injection
# Assay type: in vivo, Sprague–Dawley rats
# appliedConditions: rat, in vivo, iv
measurementKind: fe-U,0–12h (fraction of dose excreted into urine) (%)
Numbers only, in %.

Reference set, count: 3
{"compound": "O=c1cccc([C@@H]2C[C@H](CO)[C@H]3CCCCN3C2)[nH]1", "outputUnit": "%", "reportedResult": 15.28}
{"compound": "CC(C)=CCC[C@](C)(O[C@@H]1O[C@H](CO)[C@@H](O)[C@H](O)[C@H]1O)[C@H]1CC[C@]2(C)[C@@H]1[C@H](O)C[C@@H]1[C@@]3(C)CC[C@H](O)C(C)(C)[C@@H]3[C@@H](O[C@@H]3O[C@H](CO)[C@@H](O)[C@H](O)[C@H]3O[C@@H]3O[C@H](CO)[C@@H](O)[C@H](O)[C@H]3O)C[C@]12C [Compound C13, 20-Gluco-Ginsenoside Rf]", "outputUnit": "%", "reportedResult": 38.72}
{"compound": "O=C1CCC[C@@H]2[C@H]3CCCN4CCC[C@@](O)(CN12)[C@@H]34", "outputUnit": "%", "reportedResult": 59.77}

Problem: // lookup fe-U,0–12h (fraction of dose excreted into urine) for CC(C)(O[C@@H]1O[C@H](CO)[C@@H](O)[C@H](O)[C@H]1O)[C@@H]1CC[C@](C)([C@H]2[C@@H](O)C[C@@]3(C)[C@@H]4C[C@H](O)[C@H]5C(C)(C)[C@@H](O[C@@H]6OC[C@@H](O)[C@H](O)[C@H]6O[C@@H]6O[C@H](CO)[C@@H](O)[C@H](O)[C@H]6O)CC[C@@]56C[C@@]46CC[C@]23C)O1 [Compound B5, Astragaloside V]
Solution: 51.36
